system: HL-60(TB) leukemia; assay: NCI-60 one-dose screen, 48 h; details: 10 µM unless noted
Compounds without any hit were thinned out: in the full panel of roughly 83,000, 20% have a hit. The source made the active and inactive calls. The calls were made as follows: active = growth percent below 10; inactive = the rest.
Labels: active, inactive

- Compound: "C/C(=N\\Nc1ccc2ccccc2n1)c1ccccn1"
  Target Of Assay: "HL-60(TB) leukemia"
  Label Value: "active"
- Compound: "CCCCN(CCCC)CCC(C)(O)c1cc2ccccc2c2ccccc12 (configuration not stated)"
  Target Of Assay: "HL-60(TB) leukemia"
  Label Value: "inactive"
- Compound: "c1ccc2c(c1)oc1cc3sccc3nc12"
  Target Of Assay: "HL-60(TB) leukemia"
  Label Value: "inactive"
- Compound: "CCN1CCN(CC(=O)Nc2nc3ccc(NCc4ccc(Cl)cc4)cc3s2)CC1"
  Target Of Assay: "HL-60(TB) leukemia"
  Label Value: "inactive"
- Compound: "CCCCC/C(C=C(C#N)C#N)=C/c1ccccc1"
  Target Of Assay: "HL-60(TB) leukemia"
  Label Value: "active"
- Compound: "CCCCNc1ccc(Nc2ccccc2)cc1"
  Target Of Assay: "HL-60(TB) leukemia"
  Label Value: "inactive"
- Compound: "CCCc1cc(=O)n2c(C(=O)Nc3ccc(F)cc3)c(C(=O)Nc3ccc(F)cc3)sc2n1"
  Target Of Assay: "HL-60(TB) leukemia"
  Label Value: "inactive"
- Compound: "c1ccc(COc2ccc(Nc3ncnc4c3cnn4-c3ccccc3)cc2)cc1"
  Target Of Assay: "HL-60(TB) leukemia"
  Label Value: "inactive"
- Compound: "Oc1cccc(CCc2ccc(Oc3cc(CCc4cccc(O)c4)cc(O)c3O)cc2)c1"
  Target Of Assay: "HL-60(TB) leukemia"
  Label Value: "inactive"
- Compound: "O=C(Nc1ccccc1)Oc1cccc2cccnc12"
  Target Of Assay: "HL-60(TB) leukemia"
  Label Value: "inactive"
- Compound: "CC(C)=CCc1ccc(O)c(=O)cc1C(C)C"
  Target Of Assay: "HL-60(TB) leukemia"
  Label Value: "active"
- Compound: "O=C1Nc2ccccc2/C1=N/N=C/c1ccsc1"
  Target Of Assay: "HL-60(TB) leukemia"
  Label Value: "inactive"

====

tested on: CCRF-CEM leukemia; experiment: NCI-60 one-dose screen, 48 h (100 = growth as untreated, 0 = no growth, -100 = all killed); settings: 10 µM unless noted
The panel holds about 83,000 compounds, 20% with a hit somewhere; the sample as a whole holds those more often.
Measured Quantity: growth (%)

- Compound: "CCOC(=O)C1(c2ccccc2)CCN(CC(=O)c2ccc(NC(C)=O)cc2)CC1"
  Target Of Assay: "CCRF-CEM leukemia"
  Measured Quantity: "growth"
  Unit Info: "%"
  Meas Value: 99.3
- Compound: "CCCCCN(CCCCC)CC(O)c1ccc(C)c(Cl)c1 (stereo not given)"
  Target Of Assay: "CCRF-CEM leukemia"
  Measured Quantity: "growth"
  Unit Info: "%"
  Meas Value: 99
- Compound: "NC(=O)C(Cl)Cl"
  Target Of Assay: "CCRF-CEM leukemia"
  Measured Quantity: "growth"
  Unit Info: "%"
  Meas Value: -19.9
- Compound: "C[C@]12CC[C@@H]3c4ccc(OC(=O)Cc5ccc(N(CCCl)CCCl)cc5)cc4CC[C@H]3[C@@H]1CC[C@@H]2OC(=O)Cc1ccc(N(CCCl)CCCl)cc1"
  Target Of Assay: "CCRF-CEM leukemia"
  Measured Quantity: "growth"
  Unit Info: "%"
  Meas Value: 136
- Compound: "COc1cc(CNCCc2ccc(Cl)cc2)cc(OC)c1O"
  Target Of Assay: "CCRF-CEM leukemia"
  Measured Quantity: "growth"
  Unit Info: "%"
  Meas Value: 46.9
- Compound: "CN1CC2CCC(C1)C2=O"
  Target Of Assay: "CCRF-CEM leukemia"
  Measured Quantity: "growth"
  Unit Info: "%"
  Meas Value: 94.4
- Compound: "CC[C@@H](C)/C=C(C)/C=C/C(=O)c1c(O)c(-c2ccc(O)cc2)cn(O)c1=O"
  Target Of Assay: "CCRF-CEM leukemia"
  Measured Quantity: "growth"
  Unit Info: "%"
  Meas Value: 9.47
- Compound: "CC(C)(C)NCC(O)c1ccccc1Cl (stereo not given)"
  Target Of Assay: "CCRF-CEM leukemia"
  Measured Quantity: "growth"
  Unit Info: "%"
  Meas Value: 10.5
- Compound: "Clc1ccc(SSC(Cl)(Cl)Cl)cc1"
  Target Of Assay: "CCRF-CEM leukemia"
  Measured Quantity: "growth"
  Unit Info: "%"
  Meas Value: 109
- Compound: "O=C1NC(=O)C(CN2C(=O)C3(c4ccccc42)[C@H](Cl)C(=O)N3c2ccccc2)C(=O)N1 (stereo not given in full)"
  Target Of Assay: "CCRF-CEM leukemia"
  Measured Quantity: "growth"
  Unit Info: "%"
  Meas Value: 54.4
- Compound: "c1ccc(CCN2CCCCC2Cc2ccccc2)cc1 (stereo not given)"
  Target Of Assay: "CCRF-CEM leukemia"
  Measured Quantity: "growth"
  Unit Info: "%"
  Meas Value: 105
- Compound: "CC(C)[C@]12O[C@H]1[C@@H]1O[C@]13[C@]1(O[C@H]1C[C@H]1C4=C(CC[C@@]13C)C(=O)OC4)[C@@H]2OC(=O)OC(C)(C)C"
  Target Of Assay: "CCRF-CEM leukemia"
  Measured Quantity: "growth"
  Unit Info: "%"
  Meas Value: 13.4
- Compound: "CC(=O)Nc1ccc(Cc2ccc(NC(C)=O)cc2)cc1"
  Target Of Assay: "CCRF-CEM leukemia"
  Measured Quantity: "growth"
  Unit Info: "%"
  Meas Value: 101
- Compound: "C[CH2][Sn]([CH2]C)([CH2]C)[NH]S(=O)(=O)c1ccc(C)cc1"
  Target Of Assay: "CCRF-CEM leukemia"
  Measured Quantity: "growth"
  Unit Info: "%"
  Meas Value: 108
- Compound: "O=C(CCc1ccco1)NC1CCN(CC2(c3ccc(Cl)cc3)CCC2)CC1"
  Target Of Assay: "CCRF-CEM leukemia"
  Measured Quantity: "growth"
  Unit Info: "%"
  Meas Value: 6.1
- Compound: "CC1(C)CC2(CC(C)(C)c3cc(O)c(O)cc32)c2cc(O)c(O)cc21"
  Target Of Assay: "CCRF-CEM leukemia"
  Measured Quantity: "growth"
  Unit Info: "%"
  Meas Value: 84.5
- Compound: "CC1(C)N=C(N)N=C(N)N1c1ccc(CNC(=O)Nc2ccc(S(=O)(=O)F)c(Cl)c2)c(Cl)c1"
  Target Of Assay: "CCRF-CEM leukemia"
  Measured Quantity: "growth"
  Unit Info: "%"
  Meas Value: 17.5
- Compound: "N#[N+]c1nc2nc(N)[nH]c(=O)c2[nH]1"
  Target Of Assay: "CCRF-CEM leukemia"
  Measured Quantity: "growth"
  Unit Info: "%"
  Meas Value: 95.1
- Compound: "O=C(CI)Nc1ccc(Br)cc1"
  Target Of Assay: "CCRF-CEM leukemia"
  Measured Quantity: "growth"
  Unit Info: "%"
  Meas Value: -31.7
- Compound: "CN(Cc1cccnc1)N=O"
  Target Of Assay: "CCRF-CEM leukemia"
  Measured Quantity: "growth"
  Unit Info: "%"
  Meas Value: 100
- Compound: "CCC[CH2][Sn]1([CH2]CCC)[O]C(=O)c2cccc([N+](=O)[O-])c2C(=O)[O]1"
  Target Of Assay: "CCRF-CEM leukemia"
  Measured Quantity: "growth"
  Unit Info: "%"
  Meas Value: -47.7
- Compound: "ClCCN(CCCl)c1ccc(/C=C\\c2ccnc3ccccc23)cc1"
  Target Of Assay: "CCRF-CEM leukemia"
  Measured Quantity: "growth"
  Unit Info: "%"
  Meas Value: 71
- Compound: "[Br][Pb]([c]1ccccc1)([c]1ccccc1)[c]1ccccc1"
  Target Of Assay: "CCRF-CEM leukemia"
  Measured Quantity: "growth"
  Unit Info: "%"
  Meas Value: -21.5
- Compound: "CC1=C(SCCC(=O)OCC(=O)NCCC[Te]c2ccccc2)C(=O)c2ccccc2C1=O"
  Target Of Assay: "CCRF-CEM leukemia"
  Measured Quantity: "growth"
  Unit Info: "%"
  Meas Value: 2.25
- Compound: "ClCCN(CCCl)c1nc(Cl)c(C2CC(c3ccc(Cl)cc3)=NN2c2cc(Cl)cc(Cl)c2)s1 (stereo not given)"
  Target Of Assay: "CCRF-CEM leukemia"
  Measured Quantity: "growth"
  Unit Info: "%"
  Meas Value: 99.7
- Compound: "CC12CCC(=O)C=C1CCC1C2CCC2(C)C(C(=O)COC(=O)Cc3ccc(N(CCCl)CCCl)cc3)CCC12 (stereo not given)"
  Target Of Assay: "CCRF-CEM leukemia"
  Measured Quantity: "growth"
  Unit Info: "%"
  Meas Value: 26.7
- Compound: "CC(=O)N(C)C1=Nc2ccc(Cl)cc2C(c2ccccc2)=[N+]([O-])C1"
  Target Of Assay: "CCRF-CEM leukemia"
  Measured Quantity: "growth"
  Unit Info: "%"
  Meas Value: 125
- Compound: "O1[As]2O[As]3O[As]1O[As](O2)O3"
  Target Of Assay: "CCRF-CEM leukemia"
  Measured Quantity: "growth"
  Unit Info: "%"
  Meas Value: 13.1
- Compound: "Cc1ccc(N)cc1[As]=[As]c1cc(N)ccc1C (stereo not given)"
  Target Of Assay: "CCRF-CEM leukemia"
  Measured Quantity: "growth"
  Unit Info: "%"
  Meas Value: -38
- Compound: "CC(C)C1c2ccc(O)cc2Oc2nc(N)c(C#N)c(N)c21 (stereo not given)"
  Target Of Assay: "CCRF-CEM leukemia"
  Measured Quantity: "growth"
  Unit Info: "%"
  Meas Value: 94.8
- Compound: "CN1CCN(C(=O)COc2ccc(/C=C3\\CC4C5CC=C6CC(Cl)CCC6(C)C5CCC4(C)C3=O)cc2)CC1 (stereo not given)"
  Target Of Assay: "CCRF-CEM leukemia"
  Measured Quantity: "growth"
  Unit Info: "%"
  Meas Value: 49.3
- Compound: "O=S(=O)(F)c1ncnc2nc[nH]c12"
  Target Of Assay: "CCRF-CEM leukemia"
  Measured Quantity: "growth"
  Unit Info: "%"
  Meas Value: 101
- Compound: "CC(C)CCC1(CCO)C(=O)NC(=S)NC1=O"
  Target Of Assay: "CCRF-CEM leukemia"
  Measured Quantity: "growth"
  Unit Info: "%"
  Meas Value: 115
- Compound: "CC1(C)N=C(N)N=C(N)N1c1ccc(OCCCCNC(=O)Nc2cccc(S(=O)(=O)F)c2)c(Cl)c1"
  Target Of Assay: "CCRF-CEM leukemia"
  Measured Quantity: "growth"
  Unit Info: "%"
  Meas Value: 23.6
- Compound: "C1CN1c1nc(N2CC2)nc(N2CC2)n1"
  Target Of Assay: "CCRF-CEM leukemia"
  Measured Quantity: "growth"
  Unit Info: "%"
  Meas Value: 15.6
- Compound: "c1ccc(-c2ccc3ccccc3[o+]2)cc1"
  Target Of Assay: "CCRF-CEM leukemia"
  Measured Quantity: "growth"
  Unit Info: "%"
  Meas Value: 92.4
- Compound: "CC(C)OC(=S)[S-].[Au+].c1ccc([PH+](c2ccccc2)c2ccccc2)cc1"
  Target Of Assay: "CCRF-CEM leukemia"
  Measured Quantity: "growth"
  Unit Info: "%"
  Meas Value: 10.9
- Compound: "CC(N)Cc1ccc(O)cc1 (stereo not given)"
  Target Of Assay: "CCRF-CEM leukemia"
  Measured Quantity: "growth"
  Unit Info: "%"
  Meas Value: 93.9
- Compound: "O=C(Nc1ccc(S(=O)(=O)F)cc1)Oc1ccccc1"
  Target Of Assay: "CCRF-CEM leukemia"
  Measured Quantity: "growth"
  Unit Info: "%"
  Meas Value: 88.1
- Compound: "CNC(=O)Oc1ccccc1"
  Target Of Assay: "CCRF-CEM leukemia"
  Measured Quantity: "growth"
  Unit Info: "%"
  Meas Value: 111
- Compound: "C/C(=N/OC(=O)N(C)C)c1cc(Cl)ccc1Cl"
  Target Of Assay: "CCRF-CEM leukemia"
  Measured Quantity: "growth"
  Unit Info: "%"
  Meas Value: 91.7
- Compound: "CCOC(=O)/C=C(\\C)Nc1ccc(N/C(C)=C/C(=O)OCC)c2c1Oc1ccccc1O2"
  Target Of Assay: "CCRF-CEM leukemia"
  Measured Quantity: "growth"
  Unit Info: "%"
  Meas Value: 43.2
- Compound: "[O]=[Sn]([CH]1CCCCC1)[CH]1CCCCC1"
  Target Of Assay: "CCRF-CEM leukemia"
  Measured Quantity: "growth"
  Unit Info: "%"
  Meas Value: -42.2
- Compound: "O=C(O)c1nn(Cc2ccc(Cl)cc2)c2ccccc12"
  Target Of Assay: "CCRF-CEM leukemia"
  Measured Quantity: "growth"
  Unit Info: "%"
  Meas Value: 98.7
- Compound: "CNC(=O)Oc1cc(C(C)C)ccc1Sc1ccc(C(C)C)cc1OC(=O)NC"
  Target Of Assay: "CCRF-CEM leukemia"
  Measured Quantity: "growth"
  Unit Info: "%"
  Meas Value: 36.5
